Biological target: human β-Secretase (Homo sapiens)
Construct: soluble part of the human β-Secretase (AA 1-AA 460); Fc domain of IgG1; made in house
Sequence (P56817 22-460): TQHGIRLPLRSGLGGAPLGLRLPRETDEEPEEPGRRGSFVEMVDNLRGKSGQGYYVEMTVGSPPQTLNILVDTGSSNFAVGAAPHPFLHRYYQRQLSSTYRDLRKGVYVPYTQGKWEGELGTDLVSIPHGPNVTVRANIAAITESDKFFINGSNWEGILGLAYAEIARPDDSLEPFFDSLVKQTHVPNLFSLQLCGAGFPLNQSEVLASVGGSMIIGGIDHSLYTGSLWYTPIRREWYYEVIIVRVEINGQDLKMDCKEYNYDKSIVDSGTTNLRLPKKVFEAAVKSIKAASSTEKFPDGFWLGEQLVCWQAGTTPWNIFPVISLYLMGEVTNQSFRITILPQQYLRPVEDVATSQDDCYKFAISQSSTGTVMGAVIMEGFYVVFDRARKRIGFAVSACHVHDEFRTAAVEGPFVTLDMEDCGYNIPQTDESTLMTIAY
Experiment: TR-FRET assay (β-secretase enzyme, sBACE-Fc)
Assay type: biochemical
Conditions: soluble human β-secretase (sBACE-Fc), substrate (Europium)[…](Qsy7) 100 nM, pH4.5; read-out: IC50 in TR-FRET assay
Method: The β-secretase enzyme used in the TR-FRET is prepared as follows: The cDNA for the soluble part of the human β-Secretase (AA 1-AA 460) was cloned using the ASP2-Fc10-1-IRES-GFP-neoK mammalian expression vector. The gene was fused to the Fc domain of IgG1 (affinity tag) and stably cloned into HEK 293 cells. The robotic systems Biomek FX and Velocity 11 were used for all liquid handling and the enzyme and substrate solutions were kept on ice until they were placed in the robotic system. […]
measurement_name: IC50 (µM)
Give just the numeric value; µM need not be written.

Form entry - test system: human β-Secretase (Homo sapiens); read-out: IC50; molecule: COc1ccnc(-c2cc(C3(c4cncnc4)N=C(N)c4c(F)cccc43)ccc2F)c1 (centres unmarked) 4.1

Subsequent entry: COc1cc(C2(c3cccc(-c4cncc(C#N)c4)c3)N=C(N)c3c(F)cccc32)ccn1 (centres unmarked) [Example 28, acetate] 0.47

Subsequent entry: NC1=NC(c2ccncc2)(c2cccc(-c3cncnc3)c2)c2cccc(F)c21 (centres unmarked) 0.16

Subsequent entry: COc1cc(C2(c3cccc(-c4cncnc4)c3)N=C(N)c3c(F)cccc32)ccn1 (centres unmarked) 0.4

Subsequent entry: COc1c(C)cc(C2(c3cccc(-c4cncnc4)c3)N=C(N)c3c(F)cccc32)nc1C (centres unmarked) 0.079

Subsequent entry: COc1cc(C2(c3ccc(F)c(-c4cncnc4)c3)N=C(N)c3c(F)cccc32)ccn1 (centres unmarked) 0.28

Subsequent entry: COc1cc(C2(c3cccc(-c4cnccn4)c3)N=C(N)c3c(F)cccc32)ccn1 (centres unmarked) [Example 29, acetate] 0.2

Subsequent entry: Cc1cc(C2(c3cccc(-c4cncnc4)c3)N=C(N)c3c(F)cccc32)cc(C)n1 (centres unmarked) 1.1
